- Test: Water solubility (pH 5)
- Condition description: water, pH 5, water
Parameter measured: solubility

Request: For the compound Cc1cc(-c2cc(OC(=O)C(C)(C)C)ccc2Cl)cc2nnc(Nc3ccc(OCCN4CCCC4)cc3)nc12 [X] , what solubility is on record?
Result: < 100 µg/mL

Request: For the compound CCN(CC)CCNC(=O)c1c(C)[nH]c(/C=C2\C(=O)Nc3ccc(F)cc32)c1C [Su11248, reference compound] , what solubility is on record?
Result: > 1000 µg/mL

Request: For the compound CC(C)CCC[C@@H](C)[C@H]1CC[C@H]2[C@@H]3CC=C4C[C@@H](O)CC[C@]4(C)[C@H]3CC[C@]12C [Cholesterol, reference compound] , what solubility is on record?
Result: < 1000 µg/mL

Request: For the compound Cc1cc(-c2cc(O)ccc2Br)cc2nnc(Nc3ccc(S(=O)(=O)NCCN4CCCC4)cc3)nc12 [XV] , what solubility is on record?
Result: < 100 µg/mL

Request: For the compound Cc1cc(-c2cc(OC(=O)c3ccccc3)ccc2Cl)cc2nnc(Nc3ccc(OCCN4CCCC4)cc3)nc12 [VI] , what solubility is on record?
Result: < 100 µg/mL

Request: For the compound COc1cc(Nc2c(C#N)cnc3cc(OCCCN4CCN(C)CC4)c(OC)cc23)c(Cl)cc1Cl [SKI606, reference compound] , what solubility is on record?
Result: < 1000 µg/mL

Request: For the compound Brc1c(NC2=NCCN2)ccc2nccnc12 [Brimonidine, reference compound] , what solubility is on record?
Result: > 2000 µg/mL

Request: For the compound Cc1cc(-c2cc(OC(=O)C(C)C)ccc2Cl)cc2nnc(Nc3ccc(OCCN4CCCC4)cc3)nc12 [XX] , what solubility is on record?
Result: < 100 µg/mL

Request: For the compound Cc1cc(-c2c(Cl)cccc2Cl)cc2nnc(Nc3ccc(OCCN4CCCC4)cc3)nc12 [XI] , what solubility is on record?
Result: < 100 µg/mL
